- MEASUREMENT_TARGET: Plasmin (Homo sapiens, UniProt P00747)
- Construct: Human plasmin is purchased; purchased Boehringer Mannheim, Indianapolis, Indiana
- Sequence (P00747 581-810 limits assumed): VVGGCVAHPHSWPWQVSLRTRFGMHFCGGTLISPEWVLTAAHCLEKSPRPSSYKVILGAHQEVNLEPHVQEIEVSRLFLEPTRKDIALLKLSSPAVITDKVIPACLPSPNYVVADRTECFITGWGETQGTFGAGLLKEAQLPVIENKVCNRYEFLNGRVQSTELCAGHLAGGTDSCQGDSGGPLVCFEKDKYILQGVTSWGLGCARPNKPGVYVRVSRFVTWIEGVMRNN
- Sequence (P00747 97-580 partner limits assumed): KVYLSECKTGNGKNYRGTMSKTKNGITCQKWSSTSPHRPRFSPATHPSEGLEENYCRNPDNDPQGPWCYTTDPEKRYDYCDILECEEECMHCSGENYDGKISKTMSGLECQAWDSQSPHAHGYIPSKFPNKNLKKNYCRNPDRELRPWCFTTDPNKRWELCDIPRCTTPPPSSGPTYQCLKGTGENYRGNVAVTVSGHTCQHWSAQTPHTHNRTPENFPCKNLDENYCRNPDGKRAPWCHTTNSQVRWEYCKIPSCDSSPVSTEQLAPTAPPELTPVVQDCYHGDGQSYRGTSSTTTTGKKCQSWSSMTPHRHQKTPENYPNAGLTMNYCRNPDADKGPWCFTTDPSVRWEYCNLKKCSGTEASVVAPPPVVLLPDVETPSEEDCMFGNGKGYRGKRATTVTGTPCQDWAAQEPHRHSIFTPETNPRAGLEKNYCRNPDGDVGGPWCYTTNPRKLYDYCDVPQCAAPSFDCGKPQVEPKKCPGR
- TEST_DETAILS: biochemical
- CONDITIONS: read-out: Kass Plasmin (converted)
- From the text: […]
Where a name gives a salt, the structure may show the parent alone.
ASSAY_ENDPOINT: Kd (µM)
Express your answer in µM, writing the number without its unit.

Some molecules with known Kd results, for comparison:
Req: Report measured Kd; entry is N=C(N)NC/C=C/CNC(=O)[C@@H]1CCCN1C(=O)[C@H](N)Cc1ccccc1 (relative stereo)
Resp: 1250

Req: # return recorded Kd for input N=C(N)c1ccc(CNC(=O)[C@@H]2CCCN2C(=O)[C@@H]2NCC[C@@H]3CCCC[C@@H]32)cc1 [Example 18, 1-Piq-Pro-p-NHCH2C6H4C(NH)NH2·2HCl]
Resp: 11.8

Req: Determine from records and report Kd for CCOC(=O)N[C@H](Cc1ccccc1)C(=O)N1CCC[C@H]1C(=O)NCCCCNC(=N)N [Example 3, EtOCO-D-Phe-Pro-Agm·HCl]
Resp: 217

More entries:
Req: Identify measured Kd corresponding to Nc1ccc(CCNC(=O)[C@@H]2CCCN2C(=O)[C@H](N)Cc2ccccc2)cc1 [Example 14, D-Phe-Pro-p-NHCH2CH2C6H4NH2·HCl]
Resp: 21700

Req: Annotate the molecule N=C(N)NCCCCCNC(=O)[C@@H]1CCCN1C(=O)[C@H](N)Cc1ccccc1 [Example 6, D-Phe-Pro-NH(CH2)5NHC(NH)NH2·HCl] with its measured Kd.
Resp: 4350

Req: Give Kd for the following molecule: N=C(N)c1ccc(CNC(=O)[C@@H]2C[C@H](Oc3ccccc3)CN2C(=O)[C@H]2CCCCN2)cc1
Resp: 23.8

----------
- MEASUREMENT_TARGET: Human Thrombin (Homo sapiens)
- TEST_DETAILS: biochemical
- CONDITIONS: read-out: Kass Human Thrombin (converted)
Counter-ions that a name gives are not always drawn.
We begin with a simple list: items and their reported Kd.
Field note: include the unit after the figure.

Req: Give recorded Kd. CCOC(=O)N[C@H](Cc1ccccc1)C(=O)N1CCC[C@H]1C(=O)NCCCCNC(=N)N [Example 3, EtOCO-D-Phe-Pro-Agm·HCl]
Resp: 476 nM

Req: Indicate its recorded Kd; the compound in question is O=C(O)CN[C@H](CC1CCCCC1)C(=O)N1CCC[C@H]1C(=O)NCCC1CCNCC1
Resp: 357 nM

Req: Read the entry N=C(N)Nc1ccc(CCNC(=O)[C@@H]2CCCN2C(=O)[C@@H]2NCC[C@@H]3CCCC[C@@H]32)cc1 and write its reported Kd.
Resp: 8330 nM

Req: Specify reported Kd for the compound shown: N=C(N)c1ccc(CNC(=O)[C@@H]2C[C@@H]3CCCC[C@@H]3N2C(=O)[C@@H](Cc2ccccc2)NCC(=O)O)cc1
Resp: 22.2 nM

Req: Using the record for N=C(N)Nc1ccc(CNC(=O)[C@@H]2CCCN2C(=O)[C@@H]2NCC[C@@H]3CCCC[C@@H]32)cc1 [Example 38, D-1-Piq-Pro-p-NHCH2C6H4NHC(NH)NH2·2HCl] , state its measured Kd.
Resp: 909 nM

Req: Please give measured Kd of the following entry: N=C(N)Nc1cccc(CCNC(=O)[C@@H]2CCCN2C(=O)[C@@H]2NCC[C@@H]3CCCC[C@@H]32)c1
Resp: 100000 nM

Req: For NCC1CCC(CNC(=O)[C@@H]2CCCN2C(=O)[C@@H](CC2CCCCC2)NCC(=O)O)CC1 (stereo partly drawn) [Example 79, HO2CCH2-D-Cha-Pro-4-NHCH2C6H10CH2NH2·HCl] , write its Kd.
Resp: 500 nM

Req: Please report Kd for the following compound: N=C(N)c1ccc(CNC(=O)[C@@H]2CCCN2C(=O)[C@@H](CC2CCCCC2)NCCC(=O)O)cc1
Resp: 1.43 nM

Req: Identify Kd associated with the compound N=C(N)N1CCC(CCNC(=O)[C@@H]2CCCN2C(=O)[C@@H](CC2CCCCC2)NCC(=O)O)CC1
Resp: 25.6 nM

Req: Please give measured Kd of the following entry: Nc1ccc(CCNC(=O)[C@@H]2CCCN2C(=O)[C@@H](CC2CCCCC2)NCC(=O)O)cn1
Resp: 2220 nM

Req: Assign Kd to the following record: N=C(N)c1cccc(CCNC(=O)[C@@H]2CCCN2C(=O)[C@@H]2NCC[C@@H]3CCCC[C@@H]32)c1 [Example 29, 1-Piq-Pro-m-NHCH2CH2-C6H4C(=NH)NH2·2HCl]
Resp: 1320 nM

Req: State, in one line, measured Kd of Nc1ccc(CNC(=O)[C@@H]2CCCN2C(=O)[C@@H](CC2CCCCC2)NCC(=O)O)cn1
Resp: 34.5 nM

Req: Supply measured Kd of CCS(=O)(=O)N[C@H](Cc1ccccc1)C(=O)N1CCC[C@H]1C(=O)NCCc1cccc(C(=N)N)c1 in your reply.
Resp: 3450 nM

Req: Report Kd, nothing else, for this compound: N=C(N)c1ccc(CNC(=O)[C@@H]2CCCN2C(=O)[C@@H](Cc2ccccc2)NCC(=O)O)cc1
Resp: 4.17 nM

Req: Note down Kd recorded for CCC(CC)C(=O)N[C@@H](CCC(=O)O)C(=O)N1CCC[C@H]1C(=O)NCc1ccc(C(=N)N)cc1
Resp: 1640 nM
